- System: microorganisms
- assay.remarks: Morphology, biofilm and growth disruption by peptides (Table 5)
- Format: cell-based
- Design: key: A: Peptide aggregates; B: Less hyphal formation; Clumps; Diffuse clumps and small polyps; F: Diffuse growth; H: Thin; I: Growth inhibition; Microcolony formation; Rippled; Small polyps; Thick; W: Halo formation on top, microlonies on bottom
- applied.conditions: S. epidermidis
recorded.endpoint: Organism, effect

> print(dat)
                                  substance  recorded.endpoint         test.result
1  PF-375 (MDSAKAQTMRTDWLAVSCLVASAYLRSMLA; Peptide with targeting and/or antimicrobial activity)   Organism, effect  S. epidermidis (C)
2  PF-370 (VIFLHKESGNLKEIFY; Peptide with targeting and/or antimicrobial activity)   Organism, effect  S. epidermidis (C)
3  PF-190 (HFILRKPLLFMIHSLKTGPLDRF; Peptide with targeting and/or antimicrobial activity)   Organism, effect  S. epidermidis (C)

---

- Tested on: bacteria
- assay.remarks: Binding of targeting peptides to microorganisms (Table 3)
- applied.conditions: peptide binding in aqueous buffers that varied depending on peptide solubility; preferably 1x PBS
recorded.endpoint: Target(s) (microorganism bound by the targeting peptide)

> print(dat)
                                  substance  test.result
1  PF-797 (WYYFDNNGYM; Peptide with targeting and/or antimicrobial activity)    S. mutans
2  PF-794 (NLYFENQGN; Peptide with targeting and/or antimicrobial activity)    S. mutans

---

- System: microorganisms
- assay.remarks: Morphology, biofilm and growth disruption by peptides (Table 5)
- Format: cell-based
- Set-up: key: A: Peptide aggregates; B: Less hyphal formation; Clumps; Diffuse clumps and small polyps; F: Diffuse growth; H: Thin; I: Growth inhibition; Microcolony formation; Rippled; Small polyps; Thick; W: Halo formation on top, microlonies on bottom
- applied.conditions: B. subtilis
recorded.endpoint: Organism, effect

> print(dat)
                                  substance     test.system      test.result
1  PF-303 (EYPWSWISEPWPWDKSFYK; Peptide with targeting and/or antimicrobial activity)  microorganisms  B. subtilis (C)
2  PF-056 (AEQLFGKQKQRGVDLFLNRLTIILSILFFVLMICISYLGM; Peptide with targeting and/or antimicrobial activity)  microorganisms  B. subtilis (C)
3  PF-145 (GIVLTGRAGLVSGACSMALGVGLG; Peptide with targeting and/or antimicrobial activity)  microorganisms  B. subtilis (C)

---

- Tested on: bacteria
- assay.remarks: Binding of targeting peptides to microorganisms (Table 3)
- applied.conditions: microorganism bound by the targeting peptide; binding in aqueous buffers chosen by peptide solubility, preferably 1x PBS
recorded.endpoint: Target(s)

> print(dat)
                                  substance     test.result
1  PF-142 (GIDRGCQAAR; Peptide with targeting and/or antimicrobial activity)       S. mutans
2  PF-289 (MGRHLWNPSYFVATVSENTEEQIRKYRKNK; Peptide with targeting and/or antimicrobial activity)    C. difficile
3  PF-160 (SFHASLTKNEKPIKSTG; Peptide with targeting and/or antimicrobial activity)  S. epidermidis
4  PF-301 (GIVLIGLKLIPLLANVLN; Peptide with targeting and/or antimicrobial activity)    C. difficile
5  PF-323 (ARESIEKSHVPVDATIVGVVDSFEVFDE; Peptide with targeting and/or antimicrobial activity)       S. mutans

So what's the measured Target(s) for this one? PF-155 (GRYGDDSKERQGRAQ; Peptide with targeting and/or antimicrobial activity) C. jeikeium

So what's the measured Target(s) for this one? PF-101 (DPVPERQEQACACHRTAKPGK; Peptide with targeting and/or antimicrobial activity) S. mutans

So what's the measured Target(s) for this one? PF-194 (MKGNKLATAHEQPVKNSAPPL; Peptide with targeting and/or antimicrobial activity) C. jeikeium

So what's the measured Target(s) for this one? PF-337 (YMTKKLVEMAERQMAGK; Peptide with targeting and/or antimicrobial activity) S. epidermidis

So what's the measured Target(s) for this one? PF-275 (LVSGVANTVKNTAHTVGNTAKHAGHVAADTTVKATKKQQVK; Peptide with targeting and/or antimicrobial activity) S. mutans

So what's the measured Target(s) for this one? PF-338 (KGTSCPDQLSKAIRQSI; Peptide with targeting and/or antimicrobial activity) S. mutans
